Assay: Aqueous solubility of the compound in DMSO at pH 6.8 by HPLC method
Type: physicochemical
Respond with criterion met for solubility values of 20 µg/mL and above, criterion not met for values below.

// query Textbook exercise: given the entry `COCCNC(=O)c1ccc(Oc2sc(C(N)=O)c3c2-c2sncc2CC3)c(C)n1` , state whether its solubility is greater than or equal to 20 µg/mL.
// result criterion not met

// query // inclusive: solubility at least 20 µg/mL? input: `NC(=O)c1ccc(Oc2sc(C(N)=O)c3c2-c2sncc2CC3)cn1`
// result criterion not met

// query Determine whether measured solubility meets or exceeds 20 µg/mL for `COCCNC(=O)c1ccc(Oc2sc(C(N)=O)c3c2-c2sncc2CC3)cn1`
// result criterion met

// query Does `CN(C)C(=O)c1ccc(Oc2sc(C(N)=O)c3c2-c2sncc2CC3)cn1` have a reported solubility of at least 20 µg/mL?
// result criterion met

// query Answer whether solubility of `NC(=O)c1sc(Oc2ccc(N)nc2)c2c1CCc1cnsc1-2` is greater than or equal to 20 µg/mL.
// result criterion not met

// query Hi team, for `CC(C)(O)CNC(=O)c1ccc(Oc2sc(C(N)=O)c3c2-c2sncc2CC3)cn1` , is the recorded solubility at or above 20 µg/mL?
// result criterion met

// query Check if solubility >= 20 µg/mL (inclusive). Item: `CNC(=O)c1ccc(Oc2sc(C(N)=O)c3c2-c2sncc2CC3)cn1`
// result criterion not met

// query Quick check, solubility >= 20 µg/mL? `CC(=O)Nc1ccc(Oc2sc(C(N)=O)c3c2-c2sncc2CC3)cn1`
// result criterion not met

// query Is reported solubility greater than or equal to 20 µg/mL here: `CNc1ccc(Oc2sc(C(N)=O)c3c2-c2sncc2CC3)cn1`
// result criterion not met

// query Does the molecule `CCOCCNC(=O)c1ccc(Oc2sc(C(N)=O)c3c2-c2sncc2CC3)cn1` have recorded solubility that is 20 µg/mL or more?
// result criterion not met
